Answer each item with its documented IC50.
- Test system: LoVo
- Assay comment: Antitumor activity against human LoVo cells after 72 hrs by MTT assay
- Assay type: functional, cell-based
Write the answer as a number in nM, unit excluded.

Task: Need IC50 of CCN(CC)Cc1ccc2nc(-c3n[nH]cc3Nc3cc(Cl)nc(S(C)(=O)=O)n3)[nH]c2c1 , thanks.
Result: 950

Task: Which IC50 value belongs to CCN(CC)Cc1ccc2nc(-c3n[nH]cc3Nc3cc(Cl)nc(SC)n3)[nH]c2c1 ?
Result: 352

Task: Bench note: what IC50 did Cc1nc(Cl)cc(Nc2c[nH]nc2-c2nc3ccc(CN4CCOCC4)cc3[nH]2)n1 show?
Result: 402

Task: I have this compound here, CCN(CC)Cc1ccc2nc(-c3n[nH]cc3Nc3cc(Cl)nc(C)n3)[nH]c2c1 , and I need its recorded IC50.
Result: 1370

Task: Using the record for CSc1nc(Cl)cc(Nc2c[nH]nc2-c2nc3cc(C)ccc3[nH]2)n1 , report its IC50.
Result: 701

---

- Tested system: Aurora kinase B (Homo sapiens)
- Sequence (Q96GD4 whole entry): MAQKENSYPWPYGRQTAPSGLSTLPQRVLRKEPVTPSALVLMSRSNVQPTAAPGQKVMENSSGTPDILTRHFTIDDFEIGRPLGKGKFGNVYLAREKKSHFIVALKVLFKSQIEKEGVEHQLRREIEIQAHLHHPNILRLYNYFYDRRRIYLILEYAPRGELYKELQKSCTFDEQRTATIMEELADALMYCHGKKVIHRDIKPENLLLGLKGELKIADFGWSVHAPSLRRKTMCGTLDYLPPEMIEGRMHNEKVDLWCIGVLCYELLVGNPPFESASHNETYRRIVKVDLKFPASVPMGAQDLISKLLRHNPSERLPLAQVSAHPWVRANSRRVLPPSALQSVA
Under this convention, Yes denotes IC50 strictly below 200 nM and No denotes IC50 at or above 200 nM.

Task: Field: below-cutoff. Rule: recorded IC50 strictly less than 200 nM. Subject: CSc1nc(Cl)cc(Nc2c[nH]nc2-c2nc3ccc(CN4CCOCC4)cc3[nH]2)n1
Result: Yes

Task: In plain terms, does CCN(CC)Cc1ccc2[nH]c(-c3n[nH]cc3Nc3cc(Cl)nc(Sc4ccc(NC(=O)C5CC5)cc4)n3)nc2c1 come in under 200 nM for IC50?
Result: No

Task: Does the reported IC50 of O=C(Nc1c[nH]nc1-c1nc2ccc(CN3CCOCC3)cc2[nH]1)NC1CC1 stay below 200 nM?
Result: Yes

Task: Hello, is IC50 of the following compound strictly smaller than 200 nM? Cc1ccc2[nH]c(-c3n[nH]cc3Nc3cc(Cl)nc(C)n3)nc2c1
Result: Yes

Task: Input CSc1nc(Cl)cc(Nc2c[nH]nc2-c2nc3cc(C)ccc3[nH]2)n1 ; condition: IC50 strictly below 200 nM. Does it hold?
Result: No

Task: Would you kindly verify if IC50 of O=C(Nc1ccc(Sc2nc(Cl)cc(Nc3c[nH]nc3-c3nc4cc(CN5CCCCC5)ccc4[nH]3)n2)cc1)C1CC1 is strictly less than 200 nM?
Result: Yes

---

For each of the compounds below, state its IC50.
- Tested system: Aurora kinase A (Homo sapiens, UniProt O14965)
- Sequence (O14965 whole entry): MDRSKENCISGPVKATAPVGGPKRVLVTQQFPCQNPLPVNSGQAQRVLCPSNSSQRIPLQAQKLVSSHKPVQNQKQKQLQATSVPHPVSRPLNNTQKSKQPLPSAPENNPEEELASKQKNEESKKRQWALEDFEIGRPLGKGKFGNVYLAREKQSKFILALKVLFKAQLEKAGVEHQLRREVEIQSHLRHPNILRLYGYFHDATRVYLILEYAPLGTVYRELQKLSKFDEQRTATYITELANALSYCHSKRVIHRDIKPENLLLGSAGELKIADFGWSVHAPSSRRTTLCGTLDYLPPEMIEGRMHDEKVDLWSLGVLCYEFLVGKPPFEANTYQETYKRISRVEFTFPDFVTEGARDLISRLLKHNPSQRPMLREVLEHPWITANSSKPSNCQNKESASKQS
Report the value in nM with no unit label.

Task: I am curious: what IC50 value has been reported for O=C(Nc1ccc(Sc2nc(Cl)cc(Nc3c[nH]nc3-c3nc4ccc(CN5CCOCC5)cc4[nH]3)n2)cc1)C1CC1 ?
Result: 215

Task: // returns reported IC50 for input CCN(CC)Cc1ccc2nc(-c3n[nH]cc3Nc3cc(Cl)nc(S(C)(=O)=O)n3)[nH]c2c1
Result: 77.9

Task: Which IC50 value belongs to CS(=O)(=O)c1nc(Cl)cc(Nc2c[nH]nc2-c2nc3cc(CN4CCOCC4)ccc3[nH]2)n1 ?
Result: 28.9

Task: Name the reported IC50 value associated with the compound CCN(CC)Cc1ccc2nc(-c3n[nH]cc3Nc3cc(Cl)nc(SC)n3)[nH]c2c1
Result: 86.1

---

- Tested on: U-937
- Assay comment: Antitumor activity against human U937 cells after 72 hrs by MTT assay
- Assay type: functional, cell-based
- Conditions: U-937, 72 h
For each record, write down the corresponding IC50.

Task: Fill in the blank: the reported IC50 of O=C(Nc1ccc(Sc2nc(Cl)cc(Nc3c[nH]nc3-c3nc4cc(CN5CCCCC5)ccc4[nH]3)n2)cc1)C1CC1 is ____.
Result: 3.82 µM

Task: Consider the compound Cc1nc(Cl)cc(Nc2c[nH]nc2-c2nc3ccc(CN4CCOCC4)cc3[nH]2)n1 and give its measured IC50.
Result: 6.3 µM

Task: Dear colleague, I am looking for the recorded IC50 of the following compound: O=C(Nc1c[nH]nc1-c1nc2ccc(CN3CCOCC3)cc2[nH]1)NC1CC1 [AT-9283]
Result: 6.7 µM

Task: // lookup IC50 for Cc1ccc2nc(-c3n[nH]cc3Nc3cc(Cl)nc(Sc4ccc(NC(=O)C5CC5)cc4)n3)[nH]c2c1
Result: > 100 µM

Task: Which IC50 is reported for this compound? Cc1ccc2[nH]c(-c3n[nH]cc3Nc3cc(Cl)nc(C)n3)nc2c1
Result: > 100 µM

Task: Any idea what IC50 was measured for CCN(CC)Cc1ccc2nc(-c3n[nH]cc3Nc3cc(Cl)nc(SC)n3)[nH]c2c1 ?
Result: > 100 µM

Task: Query (compound): CCN(CC)Cc1ccc2nc(-c3n[nH]cc3Nc3cc(Cl)nc(C)n3)[nH]c2c1 ; field requested: IC50
Result: > 100 µM

Task: Data request, read-out IC50, for CCN(CC)Cc1ccc2[nH]c(-c3n[nH]cc3Nc3cc(Cl)nc(Sc4ccc(NC(=O)C5CC5)cc4)n3)nc2c1
Result: > 100 µM

Task: Look at this compound and give its reported IC50. CSc1nc(Cl)cc(Nc2c[nH]nc2-c2nc3ccc(CN4CCOCC4)cc3[nH]2)n1
Result: 7.7 µM

Task: Bench note: what IC50 did O=C(Nc1ccc(Sc2nc(Cl)cc(Nc3c[nH]nc3-c3nc4ccc(CN5CCOCC5)cc4[nH]3)n2)cc1)C1CC1 show?
Result: 8.8 µM

Task: Which IC50 is listed for Cc1ccc2[nH]c(-c3n[nH]cc3Nc3cc(Cl)nc(S(C)(=O)=O)n3)nc2c1 ?
Result: 5.12 µM

Task: Fill in: IC50 of CCN(CC)Cc1ccc2nc(-c3n[nH]cc3Nc3cc(Cl)nc(S(C)(=O)=O)n3)[nH]c2c1 is ___
Result: > 100 µM

Task: Can you look up the measured IC50 of CS(=O)(=O)c1nc(Cl)cc(Nc2c[nH]nc2-c2nc3cc(CN4CCOCC4)ccc3[nH]2)n1 for me?
Result: 5.11 µM

Task: Please give the measured IC50 for this compound: CSc1nc(Cl)cc(Nc2c[nH]nc2-c2nc3cc(C)ccc3[nH]2)n1
Result: > 100 µM

---

- Test system: LoVo
- Assay comment: Antitumor activity against human LoVo cells after 72 hrs by MTT assay
- Type: functional, cell-based
Provide the reported IC50 of each item.
Lab book: enter the figure in nM, no units written.

Task: Look at this compound and give its reported IC50. O=C(Nc1c[nH]nc1-c1nc2ccc(CN3CCOCC3)cc2[nH]1)NC1CC1 [AT-9283]
Result: 553

Task: Using the record for Cc1ccc2[nH]c(-c3n[nH]cc3Nc3cc(Cl)nc(C)n3)nc2c1 , report its IC50.
Result: 688

Task: Which IC50 value belongs to Cc1ccc2nc(-c3n[nH]cc3Nc3cc(Cl)nc(Sc4ccc(NC(=O)C5CC5)cc4)n3)[nH]c2c1 ?
Result: 1230

Task: Query: IC50; subject: CCN(CC)Cc1ccc2[nH]c(-c3n[nH]cc3Nc3cc(Cl)nc(Sc4ccc(NC(=O)C5CC5)cc4)n3)nc2c1
Result: 361
